test system: A673 NR0B1-luciferase reporter, viability-normalised luminescence; experiment: suppressors of NR0B1-promoter luciferase reporter, dose response, EWS/Fli inhibitor project, luciferase luminescence, A673 cells, cherry-pick (AID 686920)
Observable: AC35

// worked examples, AC35 included
1) Cc1cc(C)c2sc(NNC(=O)c3ccc(S(=O)(=O)N4CCc5ccccc5C4)cc3)nc2c1; 5.12 µM
2) O=C(/C=C/c1cc(Br)ccc1O)c1ccco1; 10.7 µM

I have 3 compounds here; please give me AC35 for each one.
1. Cc1ccc(S(=O)(=O)N(C)C[C@@H]2Oc3cc(C#Cc4ccncc4)ccc3S(=O)(=O)N([C@@H](C)CO)C[C@H]2C)cc1
2. C[C@H]1O[C@@H](O[C@H]2[C@@H](O)C[C@H](O[C@H]3[C@@H](O)C[C@H](O[C@H]4CC[C@@]5(C)[C@H](CC[C@@H]6[C@@H]5C[C@@H](O)[C@]5(C)[C@@H](C7=CC(=O)OC7)CC[C@]65O)C4)O[C@@H]3C)O[C@@H]2C)C[C@H](O)[C@@H]1O
3. CC(=NNc1ccc2ccccc2n1)c1ccccn1

1. 9.88 µM
2. 0.0886 µM
3. 0.597 µM

----------
Exercise: state measured AC35 for each of the molecules provided.
system: A673 NR0B1-luciferase reporter, viability-normalised luminescence; assay: suppressors of NR0B1-promoter luciferase reporter, dose response, EWS/Fli inhibitor project, luciferase luminescence, A673 cells, cherry-pick (AID 686920)

I have 4 molecules here; please give me AC35 for each one.
1. O=C(Nc1ccccc1F)N1CCCCN2[C@H](CO)[C@H](c3ccc(/C=C/c4ccccc4)cc3)[C@H]2C1
2. COc1ccc(OC)c(-c2nnc3n2N=C(c2ccc(OC)c(OC4CCCC4)c2)CS3)c1
3. C[C@@H]1CN([C@H](C)CO)C(=O)c2cc(NS(=O)(=O)c3ccc(Cl)cc3)ccc2O[C@@H]1CN(C)Cc1ccc(Cl)c(Cl)c1
4. O=C1c2ccccc2C(=O)N1CCCCNc1ccccc1

1: 14 µM; 2: 12.6 µM; 3: 29.1 µM; 4: 3.44 µM

Need AC35 of CC(=O)c1ccc(N=Nc2ccc(C)cc2)cc1 , thanks. 8.92 µM

----------
tested on: A673 NR0B1-luciferase reporter, viability-normalised luminescence; assay: suppressors of NR0B1-promoter luciferase reporter, dose response, EWS/Fli inhibitor project, luciferase luminescence, A673 cells, cherry-pick (AID 686920)
Observable: AC35

// worked examples, AC35 included
1. O=C(C[C@H]1C[C@H]2c3cc(NS(=O)(=O)c4ccc(F)cc4)ccc3O[C@H]2[C@H](CO)O1)NCc1ccc(Oc2ccccc2)cc1; 6.22 µM
2. CC(=O)OC1CC2(O)C3CCC4CC(O)CCC4(C)C3CCC2(C)C1C1=CC(=O)OC1 (stereo not drawn); 0.231 µM
3. C[C@@H]1CN([C@@H](C)CO)C(=O)Cc2cc(NC(=O)Nc3ccc(C(F)(F)F)cc3)ccc2O[C@@H]1CN(C)Cc1ccc(C(=O)Nc2ccccc2N)cc1; 7.91 µM
4. C[C@@H]1CN([C@@H](C)CO)C(=O)Cc2cc(NS(=O)(=O)c3cccs3)ccc2O[C@H]1CN(C)Cc1ccc(Cl)c(Cl)c1; 3.76 µM
5. C=C1C(=O)C=C[C@]2(C)C[C@@H]3OC(=O)[C@](C)(O)[C@H]3C[C@@H]12; 10.7 µM

I have 7 compounds here; please give me AC35 for each one.
1. C(=Cc1c[nH]c2ccccc12)c1ccc2ccccc2n1
2. CCCC[C@@H]1Cc2[nH][nH]c(=O)c2[C@H](c2ccc3ccccc3c2)O1
3. CC1=NN(c2ccccc2)C(=O)/C1=C\C=C\c1ccccc1
4. O=C1Nc2ccccc2C1=Nc1ccc(Br)cc1
5. O=C(O)c1ccc(N/N=C/c2ccc3nccnc3c2)cc1
6. C[C@@H]1CN([C@@H](C)CO)C(=O)c2cccc(NS(=O)(=O)c3ccccc3)c2O[C@@H]1CN(C)Cc1ccc(C(=O)Nc2ccccc2N)cc1
7. Cc1ccc(S(=O)(=O)Nc2ccc3c(c2)C(=O)N([C@@H](C)CO)C[C@@H](C)[C@@H](CN(C)Cc2ccc(C(=O)Nc4ccccc4N)cc2)O3)cc1

1. 2.22 µM
2. 11.8 µM
3. 6.98 µM
4. 15.6 µM
5. 0.993 µM
6. 5.67 µM
7. 6.44 µM

----------
system: A673 NR0B1-luciferase reporter, viability-normalised luminescence; test: suppressors of NR0B1-promoter luciferase reporter, dose response, EWS/Fli inhibitor project, luciferase luminescence, A673 cells, cherry-pick (AID 686920)
Exercise: state measured AC35 for each of the compounds provided.

I have 8 compounds here; please give me AC35 for each one.
1. BrC(=C\c1ccccc1)/C=N/n1cnnc1
2. COc1ccccc1N(/N=C1\Sc2ccccc2C1=O)C(C)=O
3. O=c1oc2cc(O)ccc2s1
4. C(=N\Nc1ccc2ccccc2n1)/c1ccc2c(c1)OCCO2
5. Cc1c(-c2nc(-c3ccc(C(C)(C)C)cc3)no2)n(C)oc1=O
6. CCc1ccc(/C=C2\SC(=S)N(CCCC(=O)NC3=NCCS3)C2=O)cc1
7. Cc1cc(-c2nc3ccccc3s2)ccc1N
8. O=c1c(Cl)cc(Cl)nn1-c1ccccc1

1. 7.17 µM
2. 23.6 µM
3. 11.8 µM
4. 0.728 µM
5. 35.5 µM
6. 0.588 µM
7. 7.98 µM
8. 8.95 µM

I have 3 compounds here; please give me AC35 for each one.
1. COc1cc(/C=N/NS(=O)(=O)c2ccc3ccccc3c2)ccc1OCc1ccc(C(=O)O)cc1
2. C[C@@H]1O[C@@H](O[C@H]2C[C@@H](O)[C@]3(CO)[C@H]4[C@H](O)C[C@]5(C)[C@@H](C6COC(=O)C6)CC[C@]5(O)[C@@H]4CC[C@]3(O)C2)[C@H](O)[C@H](O)[C@H]1O (stereo partly drawn)
3. Cc1ccc(S(=O)(=O)N(C)C[C@H]2Oc3c(cccc3N(C)C)C(=O)N([C@@H](C)CO)C[C@@H]2C)cc1

1. 2.91 µM
2. 1.24 µM
3. 1.62 µM

I have 7 compounds here; please give me AC35 for each one.
1. C[C@@H]1CN([C@@H](C)CO)C(=O)c2cc(NS(=O)(=O)c3ccc(Cl)cc3)ccc2O[C@@H]1CN(C)Cc1ccc(C(=O)Nc2ccccc2N)cc1
2. C[C@@H]1CCCCO[C@H](CN(C)Cc2ccc(C(F)(F)F)cc2)[C@H](C)CN([C@H](C)CO)C(=O)c2cc(NC(=O)CCCN(C)C)ccc2O1
3. CCc1cccc2c(C(=O)CN3C(=O)NC4(CCCCC4)C3=O)c[nH]c12
4. CC(C)CC#Cc1ccc([C@@H]2[C@@H](CO)N3CCCCN(S(=O)(=O)c4ccc(F)cc4)C[C@H]23)cc1
5. CC(C)NC(=O)N(C)C[C@@H]1Oc2cc(C#Cc3ccc(F)cc3)ccc2S(=O)(=O)N([C@H](C)CO)C[C@H]1C
6. Cc1ccc(/C=C2\SC(=S)N(CCCC(=O)NNC(=O)c3ccccc3O)C2=O)cc1
7. COC(=O)C[C@H]1CC[C@H]2[C@H](COc3ccc(NC(=O)Nc4cccc(Cl)c4)cc3C(=O)N2C)O1

["7.36 µM", "11.9 µM", "14.1 µM", "14.1 µM", "33.9 µM", "2.09 µM", "44.1 µM"]

----------
test system: A673 NR0B1-luciferase reporter, viability-normalised luminescence; experiment: suppressors of NR0B1-promoter luciferase reporter, dose response, EWS/Fli inhibitor project, luciferase luminescence, A673 cells, cherry-pick (AID 686920)
Observable: AC35

1) COc1ccccc1C(CCNCc1ccc(N(C)C)cc1)c1ccc(OC(C)C)cc1 (centres undefined); 24.9 µM
2) Nc1ccc(-c2cc3ccccc3oc2=O)cc1; 0.208 µM
3) C[C@@H]1CN([C@H](C)CO)S(=O)(=O)c2ccc(C#CC3CC3)cc2O[C@@H]1CN(C)Cc1ccccc1F; 30.4 µM
4) C(=Cc1nc2ccccc2o1)c1ccc2c(c1)OCO2; 4.5 µM
5) CC12CCC3C(CCC4(O)CC(O)CCC34C=NO)C1(O)CCC2C1=COC(=O)C1 (centres undefined); 0.293 µM
6) O=C1C(=O)N(CCS(=O)(=O)c2ccccc2)c2ccc(Cl)cc21; 12.2 µM

I have 6 molecules here; please give me AC35 for each one.
1. Cc1ccc(S(=O)(=O)Nc2ccc3c(c2)C(=O)N([C@@H](C)CO)C[C@H](C)[C@@H](CN(C)Cc2ccc(C(F)(F)F)cc2)OCCCC[C@@H](C)O3)cc1
2. O=C(N/N=C/c1cccs1)c1n[nH]c2c1CCCC2
3. N#C[C@@H]1[C@H](c2ccc(C#Cc3ccc(F)cc3)cc2)[C@@H](CO)N1C(=O)Nc1ccc(F)cc1
4. COc1ccc(OC)c(Cc2cnc3nc(N)nc(N)c3c2C)c1
5. Cc1ccc2c(=O)n3c(nc2c1)C(Cc1ccc(O)cc1)NC(=O)c1cc2ccccc2cc1-3 (centres undefined)
6. COc1ccc(-c2cc(CNc3nc(NC(C)C)nc4cc(-c5ccccc5)sc34)on2)cc1

["10.2 µM", "4.03 µM", "5.54 µM", "0.0922 µM", "6.25 µM", "15.7 µM"]

I have 3 molecules here; please give me AC35 for each one.
1. C[C@H](CO)N1C[C@H](C)[C@@H](CN(C)Cc2ccc(Oc3ccccc3)cc2)Oc2ccc(NS(=O)(=O)c3ccc(Cl)cc3)cc2CC1=O
2. COc1ccc([Si](C)(C)[C@H]2[C@H](CCO)O[C@@]3(C(=O)N(c4ccccc4)c4ccccc43)[C@@H]2C)cc1
3. Nc1nc(=S)c2ncn([C@@H]3O[C@H](CO)[C@@H](O)[C@H]3O)c2[nH]1

["22.8 µM", "7.79 µM", "4.88 µM"]
